molecular target: Dihydrofolate synthase/folylpolyglutamate synthase (Escherichia coli (strain K12)); assay: Inhibition of Escherichia coli K-12 recombinant His-tagged folylpoly-gamma-glutamate synthetase expressed in Escherichia coli BL21 at 200 uM LC-MS/MS method; conditions: NCM3722
The source made the active and inactive calls. The rule behind the calls is not given here.
Give your call using only these classes: active, inactive

For orientation, consider the following solved cases.
compound	discrete.label
Nc1nc(=O)c2nc(CNc3ccc(C(=O)N[C@@H](CCC(=O)O)C(=O)O)cc3)cnc2[nH]1	inactive
Nc1nc(=O)c2c([nH]1)NCC(CNc1ccc(C(=O)N[C@@H](CCC(=O)O)C(=O)O)cc1)=N2	active
COc1cc(Cc2cnc(N)nc2N)cc(OC)c1OC	inactive

# input for lookup
[Q] // return assay outcome for CN1c2c([nH]c(N)nc2=O)NCC1CNc1ccc(C(=O)N[C@@H](CCC(=O)O)C(=O)O)cc1 (some centres undefined)
[A] inactive
